Molecular target: Chromobox protein homolog 7 (Homo sapiens)
Assay: blockers of CBX7 binding to H3K27me3 peptide – biochemical, AlphaScreen, primary screen (AID 1224903)
Details: AlphaScreen His6-CBX7 / biotin-H3K27me3 peptide binding, stronger effect = lower value
In all, about 66,000 compounds went through this assay and about 720 (1.1%) were called active. The entries come from a sample that favours actives as a whole.
Parameter: normalised signal (fraction of DMSO). Scope: all listed entries.
Hey, just send me the number, nothing else.

Challenge: Form field: normalised signal (fraction of DMSO) recorded for Cc1ccccc1Cn1c(CCNC(=O)C(C)(C)C)nc2ccccc21 with Chromobox protein homolog 7 (Homo sapiens) (enter value)
Response given: 1.12

Challenge: Form field: normalised signal (fraction of DMSO) recorded for COc1ccc(-n2c3c(cc(C(=O)NC(C)(C)C)c2=O)C(=O)CC(C)(C)C3)cc1 with Chromobox protein homolog 7 (Homo sapiens) (enter value)
Response given: 1.06

---

Target: Chromobox protein homolog 7 (Homo sapiens)
Assay: blockers of CBX7 binding to H3K27me3 peptide – biochemical, AlphaScreen, primary screen (AID 1224903)
Details: AlphaScreen His6-CBX7 / biotin-H3K27me3 peptide binding, stronger effect = lower value; measured here: z-score of CBX7 signal
About 720 (1.1%) of roughly 66,000 compounds were called active. The entries come from a sample that favours actives as a whole.
Parameter: z-score. Scope: all listed entries.
Hey, just send me the number, nothing else.

Challenge: Entry O=C1C2C3C=CC(C4CC34)C2C(=O)N1Cc1cccnc1 (stereo unspecified) has what z-score?
Response given: -1.18

---

Target: Chromobox protein homolog 7 (Homo sapiens) (UniProt O95931)
Sequence (O95931 whole entry, looked up): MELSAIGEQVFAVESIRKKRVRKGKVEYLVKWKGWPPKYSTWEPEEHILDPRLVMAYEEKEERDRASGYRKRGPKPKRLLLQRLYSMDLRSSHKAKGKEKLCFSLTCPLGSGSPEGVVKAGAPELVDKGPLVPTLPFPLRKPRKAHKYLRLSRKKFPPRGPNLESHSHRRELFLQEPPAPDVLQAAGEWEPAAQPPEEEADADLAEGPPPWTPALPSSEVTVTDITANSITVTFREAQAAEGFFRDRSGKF
Assay: blockers of CBX7 binding to H3K27me3 peptide – biochemical, AlphaScreen, primary screen (AID 1224903)
Settings: AlphaScreen His6-CBX7 / biotin-H3K27me3 peptide binding
Out of some 66,000 compounds screened, about 720 (1.1%) were called active. Rule as the data show it: active = normalised signal below about 0.5; inactive = the rest, inconclusive results apart. The entries come from a sample that favours actives as a whole.
Choose the fitting class; nothing outside active, inactive is accepted.

See these solved cases before continuing.
compound | classification
CCc1ccc(C(=O)CC2(O)C(=O)N(CCc3ccccc3)c3ccc(Br)cc32)cc1 (stereo not given) | inactive
COc1ccc(OCc2nc(C#N)c(N(C)Cc3ccccc3)o2)cc1 | inactive

Challenge: Which outcome was entered for the compound N#Cc1nc(COc2ccc(Cl)cc2)oc1N1CCCC1 in this test?
Response given: inactive

Challenge: Which outcome was entered for the compound CCCN1C(=O)C(O)(CC(=O)c2ccc(CC)cc2)c2cc(Br)ccc21 (stereo not given) in this test?
Response given: active

Challenge: Which outcome was entered for the compound COc1ccc(OC)c(S(=O)(=O)NCCc2c(C)[nH]c3ccc(C)cc23)c1 in this test?
Response given: active

---

Biological target: Chromobox protein homolog 7 (Homo sapiens) (UniProt O95931)
Assay: blockers of CBX7 binding to H3K27me3 peptide – biochemical, AlphaScreen, primary screen (AID 1224903)
Conditions: AlphaScreen His6-CBX7 / biotin-H3K27me3 peptide binding, stronger effect = lower value
Screen size: about 66,000 compounds; about 720 (1.1%) were called active. Only a selection was taken, and actives are over-represented in it overall.
Parameter: normalised signal (fraction of DMSO). Scope: all listed entries.
Hey, just send me the number, nothing else.

compound | target-under-test | data-value
CCCCNC(=O)c1cc(Nc2ccc(CC)cc2)nc2ccccc12 | Chromobox protein homolog 7 (Homo sapiens) (UniProt O95931) | 0.991
Cc1ccc(CNc2oc(-c3ccc(F)cc3)nc2C#N)cc1 | Chromobox protein homolog 7 (Homo sapiens) (UniProt O95931) | 0.934
COc1ccc(-c2cc(C(=O)NCCCn3ccnc3)no2)cc1 | Chromobox protein homolog 7 (Homo sapiens) (UniProt O95931) | 0.983
O=C(O)c1ccc(Nc2nc(-c3ccccc3)c3cc(Br)ccc3n2)cc1 | Chromobox protein homolog 7 (Homo sapiens) (UniProt O95931) | 1.05
CC(=O)Nc1ccc(S(=O)(=O)NCc2ccc(C(=O)NCCc3ccc(C)cc3)cc2)cc1 | Chromobox protein homolog 7 (Homo sapiens) (UniProt O95931) | 1.42
CCC(C)NC(=O)c1ccc2nc(N3CCOCC3)sc2c1 (stereo unspecified) | Chromobox protein homolog 7 (Homo sapiens) (UniProt O95931) | 1.08

Could you now look at the following compound, please?
Challenge: Entry COC(CNC(=O)c1csc2c1CCCCC2)OC has what normalised signal (fraction of DMSO)?
Response given: 0.834

---

Biological target: Chromobox protein homolog 7 (Homo sapiens)
Assay: blockers of CBX7 binding to H3K27me3 peptide – biochemical, AlphaScreen, primary screen (AID 1224903)
Conditions: AlphaScreen His6-CBX7 / biotin-H3K27me3 peptide binding, stronger effect = lower value; measured here: z-score of CBX7 signal
Screen size: about 66,000 compounds; about 720 (1.1%) were called active. Shown is part of a subset that was picked to be rich in actives.
Friendly reminder: z-score below -7 is true, at or above is false.

See these solved cases before continuing.
compound | classification
CC1CCCCN1S(=O)(=O)c1ccc(C(=O)Nc2nnc(-c3cccs3)o2)cc1 (stereo not given) | false
O=C(O)c1ccc(Nc2nc(-c3ccccc3)c3cc(Br)ccc3n2)cc1 | false
CC1CCN(c2c(NCc3ccc(C(=O)NCc4ccccc4)cc3)c(=O)c2=O)CC1 | false
CC1(C)CC(=O)c2cc(OCC(=O)NCCCN3CCCC3)ccc2O1 | true
COc1ccc(CCNC(=O)CSc2nc3ccccc3nc2Cc2ccc(F)cc2)cc1OC | true
COc1ccc(OC)c(NC(=O)CCc2c(C)nc3c(c(C)nn3-c3ccc(C)cc3)c2C)c1 | false
CCN(CC)S(=O)(=O)c1ccc(C(=O)Nc2nnc(-c3cc(OC)cc(OC)c3)o2)cc1 | false
O=C(Nc1ccccc1F)c1cc2c(s1)-c1ccccc1OC2 | false
CCC1CCCCN1S(=O)(=O)c1ccc(C(=O)Nc2nnc(COC)o2)cc1 (stereo not given) | true
CN(Cc1ccccc1)S(=O)(=O)c1ccc(C(=O)Nc2nnc(-c3ccccc3Cl)o2)cc1 | true

Challenge: Would you kindly verify if z-score of COc1ccc(CCNC(=O)CSc2nnc(CNC(=O)c3cccs3)o2)cc1OC is strictly less than -7?
Response given: false

Challenge: Would you kindly verify if z-score of CCN1CCN(c2ccc(Nc3nc(-c4ccccc4)c4cc(Cl)ccc4n3)cc2)CC1 is strictly less than -7?
Response given: true

Challenge: Would you kindly verify if z-score of CCN(CCCNC(=O)c1c[nH]c2ccc(S(=O)(=O)N(CC)CC)cc2c1=O)c1cccc(C)c1 is strictly less than -7?
Response given: false

Challenge: Would you kindly verify if z-score of C=CCN(CC=C)S(=O)(=O)c1ccc(C(=O)Nc2nnc(-c3cccs3)o2)cc1 is strictly less than -7?
Response given: false

Challenge: Would you kindly verify if z-score of Cc1ccc(C(=O)CN2C3=NCCN3c3ccccc32)cc1 is strictly less than -7?
Response given: false

Challenge: Would you kindly verify if z-score of CC(C)N(CCCNC(=O)C1CCC(=O)N1Cc1ccc(F)cc1)Cc1ccccc1 (stereo not given) is strictly less than -7?
Response given: false

Challenge: Would you kindly verify if z-score of CCCCN(C)S(=O)(=O)c1ccc(C(=O)Nc2nnc(C)o2)cc1 is strictly less than -7?
Response given: false

Challenge: Would you kindly verify if z-score of COc1ccc(-c2nnc(NC(=O)c3ccc(S(=O)(=O)N4CC(C)OC(C)C4)cc3)o2)c(OC)c1 (stereo not given) is strictly less than -7?
Response given: true

Challenge: Would you kindly verify if z-score of CCCCCCNC(=O)c1c[nH]c2ccc(S(=O)(=O)N(CC)c3cccc(C)c3)cc2c1=O is strictly less than -7?
Response given: false

---

Target: Chromobox protein homolog 7 (Homo sapiens)
Test: blockers of CBX7 binding to H3K27me3 peptide – biochemical, AlphaScreen, primary screen (AID 1224903)
Settings: AlphaScreen His6-CBX7 / biotin-H3K27me3 peptide binding
Out of some 66,000 compounds screened, about 720 (1.1%) were called active. Cut-off read from the data, not from the text of the source: active = normalised signal below about 0.5; inactive = the rest, inconclusive results apart. What follows is part of a selection rich in actives, with near analogues and random picks from the rest.
Choose the fitting class; nothing outside true = active, false = inactive is accepted.

See these solved cases before continuing.
compound | target-under-test | classification
c1ccc(SCCc2ccc3cc(-c4ccccc4)cn3c2)cc1 | Chromobox protein homolog 7 (Homo sapiens) | false
CC1CCCCN1CCCNC(=O)C1CCC(=O)N1C1CCCC1 (stereo unspecified) | Chromobox protein homolog 7 (Homo sapiens) | false
Cc1sc2ncn(CC(=O)NCC(=O)NCCCN3CCOCC3)c(=O)c2c1C | Chromobox protein homolog 7 (Homo sapiens) | false
Cc1cccc(C)c1Nc1c(-c2ccccn2)nc2sccn12 | Chromobox protein homolog 7 (Homo sapiens) | true
CCCNC(=O)c1ccc2c(c1)N(Cc1ccccc1)C(=O)c1ccccc1S2(=O)=O | Chromobox protein homolog 7 (Homo sapiens) | false

Please turn your attention to the following entry.
Challenge: Which outcome was entered for the compound Cc1ccc(-c2nc(-c3ccccc3Cl)no2)cc1 in this test?
Response given: false

Value source: PubChem BioAssay AID1224903
